Where do the numbers come from? From patent US20260034233A1.

target: T1, human Galectin-3 (human, UniProt P17931 2-250, limits assumed); assay: Carterra LSA SPR epitope binning, antibody on chip, hGal-3 injected
T1 construct: also called Human GAL-3; hGal-3
T1 sequence (P17931 2-250 limits assumed): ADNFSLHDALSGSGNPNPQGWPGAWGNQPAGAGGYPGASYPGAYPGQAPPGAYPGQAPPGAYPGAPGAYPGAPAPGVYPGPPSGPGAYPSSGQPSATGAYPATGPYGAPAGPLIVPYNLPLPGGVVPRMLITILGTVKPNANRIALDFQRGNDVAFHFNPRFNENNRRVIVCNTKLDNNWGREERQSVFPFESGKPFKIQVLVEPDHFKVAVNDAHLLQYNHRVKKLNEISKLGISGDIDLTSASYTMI
measured attribute: binding result

Known binding result results, listed for orientation:
binder	binding result
1104SBC1068-033 (antibody, IgG4, V domains shown) VH: DVQLQESGPGLVKPSQSLSLTCTVTGYSITSDYAWNWIRQFPGNKLEWMGYISYSGSTSYNPSLKSRISITRDASKNQFFLQLNSVTTEDTATYYCAREGGRGGTEGYYFDYWGQGTTLTVSS VL: NIVLTQSPASLAVSLGQRATISCRASESVDSYGNSFMHWYQQKPGQPPKLLIYLASNLESGVPARFSGSGSRTDFTLTIDPVEADDAATYYCQQNNEDPLTFGAGTKLELK	binds
1220SBC1068-197 (antibody, IgG4, V domains shown) VH: EVNLLESGGGLVQPGGSLKLSCEASGFDFSRFWMSWVRQTPGEGLEWIGEISPNSSTIHQTPSLKDKFFISRDNAKSTLFLQMTNVTSEDSALYYCARPYYGYYWGHGTLVTVSA VL: DIVMTQSPSSLTVTAGEKVTMSCKSSQSLLNSINQKNYLTWYQQKPGQPPKLLIYWATFRESGVPDRFTGSGSGTDFTLTISGLQAEDLAVYYCHNDYSYPFTFGSGTRLEIK	binds
1104SBC1068-378 (antibody, IgG4, V domains shown) VH: QIQLVQSGPELKKPGETVKISCKASGYTFTNYGMNWVKQAPGKGLKWMGWINTYTGEPTYADDFKGRFAFSLETSASTAYLQINNLKNEDTATYFCARWDDYDGFAYWGQGTLVTVSA VL: DIVLTQSPATLSVTPGDSVSLSCRASQSISNNLHWYQQKSHESPRLLIKYASQSISGIPSRFSGSGSGTDFTLSINSVETEDFGMYFCQQSNSWPLTFGAGTKLELK	binds
1220SBC1068-041 (antibody, IgG4, V domains shown) VH: EVKLLESGGGLVQPGGSLKLSCAASGFDFSRFWMSWVRQAPGKGLEWIGEISPDSNTIDLTPSLKDNFIISRDNAKNALFLQMSKVRSEDTALYYCTRPYYGYYWGQGTLVTVSA VL: DIVMTQSPSSLTVTAGEKVTMNCRSSQSLFNSTNQKNYLTWYQQKPGQPPKLLIYWASSRESGVPDRFTGSGSGTDFTLTISTVQTEDLAVYYCQNDYTSPFTFGSGTRLEIK	binds
1220SBC1068-274 (antibody, IgG4, V domains shown) VH: EVKLLESGGGLVQPGGSLKLSCAASGFDFSRYWMSWVRQAPGKGLEWIGEISPDSNTIDLTPSLKDNFIISRDNAKNALYLQMSKLRSEDTALYYCTRPYYGYYWGQGTLVTVSA VL: DIVMTQSPSSLTVTAGEKVTMNCRSSQSLLNSTNQKNYLTWYQQKPGQPPKLLIYWASTRESGVPDRFTGSGSGSDFTLTISTVQAEDLAVYYCQNDYTSPFTFGSGTKLEIK	binds

Proceed to the following item.
Exam item: Give its binding result value. Item: 1220SBC1068-058 (antibody, IgG4, V domains shown) VH: EVKLVESGGGLVQPGGSRKLSCAASGFTFSDYGMAWFRQAPGKGPEWVAFISNLAYSVYYADTVTGRFTISRENAKNTLYLEMNSLRSEDTAIYYCTRDRGLRETMDYWGQGTSVTVSS VL: DIVMTQAAPSVPVTPGESVSISCRSSKSLLHNNGNTYLCWFLQRPGQSPQLLIYRMSNLASGVPDRFSGSGSGTAFTLRISRVEAEDVGVYYCMQHLEYPYTFGGGTKLEIK
Marked response: binds
